# System: T-47D breast
# test.description: NCI tumour cell line growth inhibition, 48 h; in the data active = GI50 below about 0.43 µM; inactive = the rest
The reply should be one of these categories: 1.0 for active, 0.0 for inactive

INPUT: Short answer needed: outcome of this test for Cc1nc2sc(C(=O)Nc3cccc(Cl)c3C)c(N)c2cc1C(=O)/C=C/c1ccccc1 ?
OUTPUT: 0.0

INPUT: // same read-out, input: CC12OC(c3ccccc3)=CC(c3ccc(Cl)cc3)=C1C(c1ccccc1)=CC2=O (stereo unspecified)
OUTPUT: 0.0

INPUT: // same read-out, input: CCN(CC)CCCC(C)Nc1c2ccc(Cl)cc2nc2ccc(OC)cc12 (stereo unspecified)
OUTPUT: 0.0

INPUT: // same read-out, input: O=C1c2ccccc2-c2c1c1ccccc1c(=O)n2CCCNCCCn1ccnc1
OUTPUT: 0.0

INPUT: // same read-out, input: Cn1c([N+](=O)[O-])cnc1/C=C1\Oc2ccccc2C1=O
OUTPUT: 0.0

INPUT: // same read-out, input: O=C(O[C@H]1CN[C@H](C#Cc2cc3ncnc(Nc4ccc5c(ccn5Cc5cc(F)ccc5F)c4)c3s2)C1)N1CCOCC1
OUTPUT: 1.0
